target-under-test: Histamine H3 receptor (Mus musculus)
assay-remarks: In vivo effective dosage against central Histamine H3 receptor in mice after oral administration as a methylcellulose suspension
Format: organism-based
Entries and their measured ED50 follow.
property: ED50 (mg/kg)

[[record]]
molecule = "CC(NC(=O)OCCCc1c[nH]cn1)C1CCCCC1 (stereo not drawn)"
property = "ED50"
bound_operator = "="
test_value = 4

[[record]]
molecule = "CC(NC(=O)OCCCc1c[nH]cn1)C(C)(C)C (stereo not drawn)"
property = "ED50"
bound_operator = "="
test_value = 0.31

[[record]]
molecule = "CC(C)(C)C(=O)OCCCc1c[nH]cn1"
property = "ED50"
bound_operator = ">"
test_value = 10

